biological target: Hexose transporter 1 (Plasmodium falciparum) (UniProt O97467); assay: ST_JUDE_LEISH: Cytotoxicity at 2uM final concentration against transgenic Leishmania Mexicana promastigotes LmPfHT that are glucose transport deficient and complemented with the Plasmodium falciparum hexose transporter. Activity is measured by DNA content using SYBR green in vitro; assay type: functional
Quick rule for you: inhibition at 3% or higher means 1, lower means -1.

Ask | Dear colleague, could you confirm whether Cc1ccc(-n2cc(CNCCc3nc(C)c[nH]3)c(-c3ccc(F)cc3)n2)cc1 has inhibition at or above 3%?
Reply | 1

Ask | Entry CCc1nc2ccc(C(=O)OC)nc2n1Cc1ccc2oc(-c3ccccc3N)c(Br)c2c1 please
Reply | -1

Ask | Do the same for Cc1cc(CNCCCCCNCc2ccc(Cl)cc2)ccc1O please
Reply | -1

Ask | What about this compound? Cc1cc(NCCc2ccccc2)nc(NC(=N)Nc2cccc(F)c2)n1
Reply | 1

###

target: Glucose transporter (Leishmania mexicana) (UniProt O61059); assay: ST_JUDE_LEISH: Cytotoxicity at 2uM final concentration against transgenic Leishmania Mexicana promastigotes LmGT2 that are glucose transport deficient and complemented with the L. Mexicana glucose transporter 2. Activity is measured by DNA content using SYBR green in vitro; format: functional
measured-metric: inhibition (%)
# value in %; strip the unit string

Ask | Returns the measured inhibition for the input compound. Input: CNCc1ccc(-c2ccc3ccnc(N)c3c2)cc1
Reply | 3.23

Ask | Do the same for CO/C(=C\C=C\c1cc2cc(Cl)c(Cl)cc2[nH]1)C(=O)NC1CCN(CCCc2ccccc2)CC1 please
Reply | 2.46

Ask | What do we get for O=C(COc1ccccc1)Nn1cnc2ccccc21 ?
Reply | 0.3

Ask | Now the same for Cc1cccc2nc(-c3cccc(-c4cccc(CNCCc5ccncc5)c4)c3)[nH]c12
Reply | -1.48

Ask | Also, COc1ccc(CNCc2ccc(F)cc2)cc1-c1ccc(S(=O)(=O)NCCN2CCCC2)cc1 please.
Reply | 5.24

Ask | COc1ccc(CNc2nc(NCc3ccccc3)c3cc(OC)c(OC)cc3n2)cc1OC , same question.
Reply | 0.89

Ask | Entry to check: Oc1ccc2c(CNC3CCCCC3)c(O)ccc2c1CNC1CCCCC1
Reply | 0.34

Ask | Field entry: O=C(N[C@@H](CC1CCCCC1)C(=O)NC1CC1)c1ccc(O)c(-c2cccc(C(F)(F)F)c2)c1
Reply | 3.88

Ask | How about this compound: COc1ccc2c(=NN=Cc3ccc(OC)c4ccccc34)cc(C)[nH]c2c1
Reply | 1.11

Ask | Now consider CCNc1cc(C(=O)N[C@@H](Cc2ccccc2)[C@H](O)CNC(C)CC(C)C)c(F)c(N2CCCCS2(=O)=O)c1 (stereo partly drawn) and answer again.
Reply | 2.55

Ask | Then what about the compound CCc1ccccc1N1CCN(CCCCNC(=O)c2ccc(NC(=O)c3ccc(Cl)cc3)cc2)CC1 ?
Reply | 0.44

Ask | Now consider O=C(NCc1ccc(Cl)cc1)c1ccc(C(=O)NCC2CCCN2CC2CCCCC2)cc1 (stereo not drawn) and answer again.
Reply | 1.14

Ask | What about this compound? C/C=C/C=C/C1=NCCc2cc(OCCC)ccc21
Reply | 17.7

Ask | What about O=C(Cn1c(CCc2cccc(F)c2F)nc(=O)c2ccccc21)N(Cc1ccc(-c2ccc(C(F)(F)F)cc2)cc1)C1CCN(C2=NCCS2)CC1 ?
Reply | 4.67

Ask | For CCN(CCNc1nc(NCCc2cnc[nH]2)nc(N(CCC#N)Cc2ccccc2)n1)c1cccc(C)c1 then?
Reply | 6.78

Ask | One more compound: Cc1cc(-c2ccc3c(c2)CCN(CCC2CCC(NC(=O)/C=C/c4ccc(F)cc4)CC2)CC3)on1 (stereo not drawn)
Reply | 4.41

Ask | Can you handle CC1(C)N=C(N)N=C(N)N1c1ccc2ccccc2c1 next?
Reply | 4.01

Ask | Item: N=C(/N=C(/NCCCCCCN/C(=N\C(=N)Nc1ccc(Cl)cc1)N1CCCCC1)N1CCCCC1)Nc1ccc(Cl)cc1
Reply | -0.71

Ask | Do the same for O=C(C1COc2ccccc2O1)N(CCCn1ccnc1)Cc1csc(-c2ccc(CNCc3ccccc3)cc2)n1 (stereo not drawn) please
Reply | 2.05

Ask | What do we get for COc1cc2ccccc2c(OC)c1CCNCCCCNCCc1c(OC)cc2ccccc2c1OC ?
Reply | 14.6

Ask | Also need Cc1cccc2nc(-c3cccc(-c4cccc(CNCc5cnn(-c6ccccc6)n5)c4)c3)[nH]c12 , thanks.
Reply | 2.51

Ask | # repeat for O=C(NC1CCN(CCN2CCC(c3cn(CCO)c4ccccc34)CC2)CC1)c1ccc(-c2ccc(C(F)(F)F)cc2)cc1
Reply | 0.94

Ask | What do you get for CC(C)(CC1CCCCC1)NC(=O)[C@H](CC1CCCCC1)Nc1ccc(C#N)c2ccccc12 ?
Reply | -1.9

Ask | Let us now turn to Cc1cccc2c(C(=O)NC3CCN(Cc4ccccc4)CC3)cc(-c3cccnc3)nc12
Reply | -0.31

Ask | Same for c1ccc(-c2cc(NCCCCCCCCNc3cc(-c4ccccc4)nc4ccccc34)c3ccccc3n2)cc1
Reply | 83.4

Ask | Moving on to the next compound: Cc1ccc2c(NC(=O)Nc3ccc(N(C)C)cc3)cc(C)nc2c1
Reply | 6.28

Ask | // same read-out, input: COc1ccccc1OCCN(CC(O)COc1cccc2[nH]c3ccccc3c12)CC(O)COc1cccc2[nH]c3ccccc3c12 (stereo not drawn)
Reply | 2.35

Ask | What about this compound? CN1C(=C2SC(=Nc3ccc4ncccc4c3)N(Cc3ccccc3)C2=O)Sc2ccc(Cl)cc21
Reply | 1.06

Ask | Now try CN1CCc2ccc(NC(=O)Nc3cccc([N+](=O)[O-])c3)cc2C1 .
Reply | 1.63

Ask | Okay, and Cc1[nH]c(C)c(-c2ccc(-c3ccc(Cl)cc3)nc2)c(=O)c1Br ?
Reply | -1.28

Ask | O=[N+]([O-])c1ccc(-c2nc3cc(C4=NC5CCCCC5N4)ccc3[nH]2)cc1 (stereo not drawn) ?
Reply | -4.46

Ask | Can you handle O=C(NCCc1ccc(Cl)c(Cl)c1)c1ccc(CNC(=O)c2ccc(O)c(-c3ccc(Cl)c(Cl)c3)c2)cc1 next?
Reply | 1.06

Ask | Same again, this time with O=C(Cc1ccc([N+](=O)[O-])cc1)N1CCc2cc3nccc(N4CCN5CCC[C@@H]5C4)c3cc21
Reply | 2.97

Ask | Do the same for N=C(NCCCc1ccccc1)c1cccc(C(=N)NCCCc2ccccc2)n1 please
Reply | -0.17

Ask | Request: CCOc1ccc(-c2nonc2NC(=O)c2ccccc2)cc1OCC
Reply | 3.26

Ask | Repeat with COc1ccccc1C1CN(Cc2coc3ccccc3c2=O)Cc2ccccc2O1 (stereo not drawn)
Reply | 0.45

Ask | Now give it for O=C(Nc1ccc(-c2ccc(-c3nc4cc(C(F)(F)F)ccc4[nH]3)s2)cc1)c1ccoc1 too.
Reply | -1.02

Ask | Same question for Cc1ccc(CNC(=O)c2ccc(CN3CCCN(Cc4ccsc4)CC3)cc2)cc1 please.
Reply | 2.87

###

For each entry below, report its inhibition value.
target: Hexose transporter 1 (Plasmodium falciparum); experiment: ST_JUDE_LEISH: Cytotoxicity at 2uM final concentration against transgenic Leishmania Mexicana promastigotes LmPfHT that are glucose transport deficient and complemented with the Plasmodium falciparum hexose transporter. Activity is measured by DNA content using SYBR green in vitro; type: functional
Be sure to follow the number with its unit.

Ask | For COc1ccc2nccc(N3CCC(NCCNCc4cc5c(cn4)OCCO5)C3)c2n1 (stereo not drawn) , what is its reported inhibition?
Reply | 2.64%

Ask | // query: Cc1noc(C)c1-c1cccc(CNCc2ccc(-c3ccc(-c4nc5cc(F)ccc5[nH]4)cc3)cc2)c1
Reply | 6.89%

Ask | // repeat for O=C(NCc1cccc(C(F)(F)F)c1)c1ccc(CNC(=O)c2ccc(O)c(-c3ccc(Cl)c(Cl)c3)c2)cc1 and report
Reply | 2.57%

Ask | What do you get for Oc1ccc(CCCNc2nc(NCc3ccccc3-c3ccccc3)nc(NC3CCNCC3)n2)cc1 ?
Reply | -0.26%

Ask | What do you get for O=C(c1ccc(F)cc1)N1CCOC(CCN2CCC(c3ccccc3)CC2)(c2ccc(Cl)c(Cl)c2)C1 (stereo not drawn) ?
Reply | 1.42%

Ask | Param item: Cc1ccc(C)c2sc(N(CCCn3ccnc3)C(=O)C=Cc3cccs3)nc12
Reply | 2.3%

Ask | Here is the next compound: CN(C)c1ccc(N2C(N)=NC(N)=NC23CCCC3)cc1
Reply | -0.9%

Ask | Another compound: CC(C)(C)c1ccc(CNCC(C)(C)c2nc(-c3ccnc(N)n3)c(-c3ccc(Cl)c(O)c3)[nH]2)cc1
Reply | 6.23%

Ask | What about this compound? Cc1[nH]c(C)c(-c2ccc(OCCn3cnc(Cl)c3Cl)cc2)c(=O)c1Br
Reply | -0.56%

Ask | Thanks! And Cc1ccccc1Nc1nc(NCCc2ccccc2)nc2ccccc12 ?
Reply | 37.4%

Ask | Entry to check: CC(C)Cc1nc(N)nc(N)c1-c1ccc(Cl)cc1
Reply | 5.64%

Ask | Another: CC(C)CNCc1ccc(-c2ccccc2CNC2CCN(Cc3ccccc3)CC2)cc1
Reply | 7.66%

Ask | # iterate: CCc1nc(N)nc(N)c1-c1ccc(F)cc1
Reply | 4.73%

Ask | Could you do the same for CS(=O)(=O)CCNCc1cccc(-c2cc3c(Nc4ccc5c(cnn5Cc5ccccc5)c4)ncnc3s2)c1 , please?
Reply | -0.73%

Ask | Request: Cn1c(/C=C/C(=O)NC2CCC(CCN3CCc4ccc(C#N)cc4CC3)CC2)cc2ccccc21 (stereo not drawn)
Reply | 4.9%

Ask | Please answer likewise for COc1ccc(NC(=O)Nc2cc(C)nc3cccnc23)cc1Cn1ccnc1
Reply | 1.25%

Ask | Also check N#CC(c1ccc(Cl)cc1)c1ccc2c(C(F)(F)F)cc(C(F)(F)F)nc2n1 (stereo not drawn)
Reply | 2.87%

Ask | Can you check COc1ccc(NC(=O)[C@H](CC(C)C)Nc2cc(C)nc(NCCc3ccccc3OC)n2)cc1 next?
Reply | 2.79%

Ask | // next record O=C(NCC1CCN(Cc2ccc(F)cc2)C1)c1cc(-c2cccc(C(F)(F)F)c2)cs1 (stereo not drawn)
Reply | -1.16%

Ask | Also check CS(=O)(=O)N(c1ccccc1)c1cc(C(=O)N[C@@H](Cc2ccccc2)[C@H](O)CNC2CC2)cc(N2CCCC2=O)c1
Reply | 5.62%

Ask | What do you get for O=C(c1c(-c2[nH]c3ccccc3c2C(=O)C(F)(F)F)[nH]c2ccccc12)C(F)(F)F ?
Reply | 0.78%

Ask | Input C=CCCCNCC(NCCCNc1cc(=O)c2ccccc2[nH]1)c1cc(Br)cc(Br)c1 (stereo not drawn)
Reply | -0.98%

Ask | Record: CC1(C)C(=O)Nc2ccc3c(c21)CC1SC(=O)NN=C31 (stereo not drawn)
Reply | 0.11%

Ask | Next compound up: O=C(C=Cc1ccc(Cl)c(Cl)c1)NCCCCCN1CCC(CCNS(=O)(=O)c2ccc(Br)cc2)CC1
Reply | 1.43%

Ask | Another: CCN(CC)CCN(Cc1ccc(-c2ccc(C(F)(F)F)cc2)cc1)C(=O)Cn1c(CCc2ccccc2F)nc(=O)c2ccccc21
Reply | 3.39%

Ask | Now consider COc1cccc2c(Nc3ccccc3C)nc(Nc3ccccc3C)nc12 and answer again.
Reply | 16.8%

Ask | Now the compound O=C(Nc1ccc(C(=O)Oc2cccc3ccccc23)cc1)N[C@@H](Cc1ccc(O)cc1)C(=O)NC1CCN(Cc2ccc(O)cc2)C1 (stereo partly drawn)
Reply | 17.7%

Ask | Another compound to look at: CCN(CCCN1CCCCC1)c1nccc(Nc2ccc(Cl)cc2)n1
Reply | 0.37%

Ask | Now try CC(C)NCc1ccc(-c2cccc(-c3nc4ccccc4[nH]3)c2)cc1 .
Reply | 11.8%

Ask | // next record Cc1cc(N2CCCC2)nc(Nc2ccc(NC(=O)c3ccc(Br)o3)cc2)n1
Reply | 9.42%

Ask | Now consider Cc1cccc2nc(-c3ccc(-c4ccc(NC(=O)Nc5ccc(Cl)cc5)cc4)s3)[nH]c12 .
Reply | 1.2%

Ask | Further, for CC(C)c1ccc(N2CCN(CCCCNC(=O)c3ccc(NC(=O)c4cc(Cl)cc(Cl)c4)cc3)CC2)cc1 ?
Reply | 1.11%

Ask | How about this compound: Cc1c(OC(C)C)nc2ccccc2c1C(=O)N[C@H](c1cccc(F)c1)C1CC1
Reply | -0.55%

Ask | Now give it for CC1(C)N=C(NC(=O)c2ccc([N+](=O)[O-])cc2)N=C(N)N1OCc1ccc2ccccc2c1 too.
Reply | 4.18%

Ask | Also CCOc1ccc(-c2nc(NC(=O)COc3ccc(OC)cc3)sc2C)cc1 ?
Reply | 10%

Ask | For O=C(c1cccc(-c2cccc(-c3nc4cc(C(F)(F)F)ccc4[nH]3)c2)c1)N1CCCCC1CN1CCC(O)C1 (stereo not drawn) then?
Reply | -0.87%

Ask | Follow-up item: CS(=O)(=O)c1ccc(-c2cnc(N)c(-c3ccc(O)cc3)c2)cc1
Reply | 1.67%

Ask | For COc1cc2nc(N3CCC(CNC(=O)/C=C/c4ccccc4F)CC3)nc(N)c2cc1OC then?
Reply | 7.84%
